- Assay summary: qHTS assay to identify small molecule antagonists of the estrogen related receptor (ERR) signaling pathway (AID 1224819; also: nearly all actives have a fitted effect of over 50% in size)
- Assay conditions: ERR reporter cell line, luciferase inhibition; series mostly up to 46.1 µM
- Experimental: National Center for Advancing Translational Sciences [NCATS] NIH Chemical Genomics Center [NCGC] U.S. Environmental Protection Agency [EPA] National Institutes of Environmental Health Sciences [NIEHS] National Toxicology Program [NTP] […] The ERR cells were dispensed at 2,000 cells/5 ul/well in 1536-well white plates using a Multidrop dispenser. […] After 30 min incubation at room temperature, the luminescence intensity in the plates was measured using a ViewLux plate reader.
Results filed as inconclusive are left out. The source made the active and inactive calls. Calls follow the shape of the dose curve; as a rule, active = well fitted inhibition curve with a large enough effect in the repeat runs; inconclusive = weak or mixed curves; inactive = no such curve, though single readings can be large or run the other way.
I would appreciate it if you answered using one of these outcomes: active, inactive

Req: For COc1cc(C(O)C(=O)O)ccc1O (configuration not stated) , what call appears in the results of this test?
Resp: inactive

Req: Repeat for the following molecule: CCCCCCCCCCC/C=C\C(C)(C)/C=C\CCCC(=O)O
Resp: inactive

Req: How about COCc1nc2c([nH]1)c(=O)n(C)c(=O)n2CC(C)C ?
Resp: inactive

Req: Item: COc1cc2c(CCNC(C)=O)c[nH]c2cc1Cl
Resp: inactive

Req: Again, but for O=[N+]([O-])c1ccc(-c2nc(-c3ccc(F)cc3)c(-c3ccncc3)[nH]2)cc1
Resp: active

Req: How about Cc1ccc([N+](=O)[O-])cc1S(=O)(=O)N(C)C ?
Resp: inactive

Req: Field entry: CC(=O)/C(C)=N/O
Resp: inactive

Req: Also check NCCCS(=O)(=O)O
Resp: inactive

Req: Follow-up entry: C1CCc2nnnn2CC1
Resp: inactive

Req: Then what about the molecule CCCn1c(=O)c2[nH]c(-c3ccc(S(=O)(=O)O)cc3)nc2n(CCC)c1=O ?
Resp: inactive

Req: Okay, and Oc1cc(O)cc(/C=C/c2ccc(O)c(O)c2)c1 ?
Resp: inactive

Req: Then CC(C)NC[C@@H](O)c1ccc(O)c(O)c1 ?
Resp: inactive

Req: What do we get for COc1cc(CC(=O)O)ccc1O ?
Resp: inactive

Req: And the next one, OC[C@H]1O[C@@H](n2cnc3c(NC4CCCC4)ncnc32)[C@H](O)C1O (some centres not stated) ?
Resp: inactive

Req: Next entry: COc1ccc(/C=C/C(=O)Nc2ccccc2C(=O)O)cc1OC
Resp: inactive

Req: Okay, and Fc1ccc(C(OCCCc2cnc[nH]2)c2ccc(F)cc2)cc1 ?
Resp: active

Req: Same lookup for CCc1ccc(/C=C2/SC(=S)NC2=O)cc1 , please.
Resp: inactive

* * *

- Test system: Glucocorticoid receptor (Homo sapiens)
- Assay summary: qHTS assay to identify small molecule agonists of the glucocorticoid receptor (GR) signaling pathway (AID 720691)
- Assay conditions: GR-bla HeLa, beta-lactamase reporter ratio, 18 h
Active and inactive are the calls of the source. The call rests on the fitted dose curve; in most records, active means well fitted activation curve with a large enough effect in the signal ratio in the repeat runs (not every such curve was filed as active); inconclusive means weak or mixed curves, or effect the other way; inactive means no such curve, though single readings can be large or run the other way; the % refers to the signal ratio.
Bench note: report the call from active, inactive

Req: Outcome? CC/C=C\C/C=C\C/C=C\C/C=C\C/C=C\C/C=C\CCC(=O)O
Resp: inactive

Req: Further, for CC(=O)OCC(=O)[C@@]1(O)CC[C@H]2[C@@H]3C[C@H](C)C4=CC(=O)C=C[C@]4(C)[C@H]3[C@@H](O)C[C@@]21C ?
Resp: active

Req: Another: Cc1cccc(C)c1NC(=O)C1CCCCN1C (stereo not drawn)
Resp: inactive

Req: Query CC1(C)S[C@@H]2[C@H](NC(=O)[C@@H](NC(=O)N3CCNC3=O)c3ccccc3)C(=O)N2[C@H]1C(=O)O next
Resp: inactive

Req: Another: O=C1c2ccccc2C(=O)C1c1ccc(F)cc1
Resp: inactive

Req: // next record NCCCC[C@H](NC(=O)[C@@H]1CCCN1C(=O)[C@@H]1CSSC[C@H](N)C(=O)N[C@@H](Cc2ccc(O)cc2)C(=O)N[C@@H](Cc2ccccc2)C(=O)N[C@@H](CCC(N)=O)C(=O)N[C@@H](CC(N)=O)C(=O)N1)C(=O)NCC(N)=O
Resp: inactive

Req: Also CCCCCCCCCCCCCC(=O)OCC(COP(=O)([O-])OCC[N+](C)(C)C)OC(=O)CCCCCCCCCCCCC (stereo not drawn) , if possible.
Resp: inactive

Req: Repeat for the following molecule: CC(CNC(=O)c1cccnc1)NC(=O)c1cccnc1 (stereo not drawn)
Resp: inactive
